- assayed.system: Oxysterols receptor LXR-beta (Homo sapiens, UniProt P55055)
- Sequence (P55055 whole entry, the tested form may be a part): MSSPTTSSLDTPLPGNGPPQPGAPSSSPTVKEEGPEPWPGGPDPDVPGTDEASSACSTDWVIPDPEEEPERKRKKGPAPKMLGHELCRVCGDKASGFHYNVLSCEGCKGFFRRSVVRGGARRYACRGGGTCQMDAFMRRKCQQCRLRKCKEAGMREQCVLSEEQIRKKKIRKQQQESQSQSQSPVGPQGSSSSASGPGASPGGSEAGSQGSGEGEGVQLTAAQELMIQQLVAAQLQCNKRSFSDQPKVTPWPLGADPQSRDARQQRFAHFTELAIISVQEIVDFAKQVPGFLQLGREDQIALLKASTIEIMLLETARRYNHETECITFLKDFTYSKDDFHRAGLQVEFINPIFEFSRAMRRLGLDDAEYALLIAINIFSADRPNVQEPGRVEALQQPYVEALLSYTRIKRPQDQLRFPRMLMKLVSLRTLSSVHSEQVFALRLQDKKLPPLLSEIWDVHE
- protocol: Partial agonist activity at recombinant human GAL4-DBD-fused LXRbeta-LBD expressed in HEK293T cells measured after 12 to 14 hrs by dual-glo luciferase reporter gene assay
pEC50: −log10 of the molar value.
measure: pEC50

> print(dat)
                                   compound  measure  reported.result
1  CC1=C(/C=C/C(C)=C\C=C\C(C)=C\C(=O)O)C(C)(C)CCC1 [ALITRETINOIN]    pEC50             5.76
2  Fc1ccc(-c2c3cccc(C(F)(F)F)c3nn2Cc2ccc(F)cc2Cl)cc1 [LXR-623]    pEC50             6.05
3  C=C(c1ccc(C(=O)O)cc1)c1cc2c(cc1C)C(C)(C)CCC2(C)C [BEXAROTENE]    pEC50             6.36

====

- protocol: Cmax in chronic hand eczema patient at 30 mg, po administered once daily for 24 weeks
- Format: ADME, organism-based
- Set-up: dose 30 mg, route oral
- experimental.parameters: human, in vivo
measure: Cmax (nM)

> print(dat)
                                   molecule  reported.result
1  CC1=C(/C=C/C(C)=C\C=C\C(C)=C\C(=O)O)C(C)(C)CCC1 [ALITRETINOIN]              810

====

- protocol: Cmax in patient with solid tumor at 300 mg/m2, po administered once daily
- Type: ADME, organism-based
- Parameters: route oral
- experimental.parameters: human, in vivo
measure: Cmax (µM)

> print(dat)
                            chemical.string  measurement.unit  reported.result
1  C=C(c1ccc(C(=O)O)cc1)c1cc2c(cc1C)C(C)(C)CCC2(C)C                µM             3.39

====

// values below are reported EC50
- assayed.system: Oxysterols receptor LXR-alpha (Homo sapiens)
- Sequence (Q13133 whole entry, the tested form may be a part): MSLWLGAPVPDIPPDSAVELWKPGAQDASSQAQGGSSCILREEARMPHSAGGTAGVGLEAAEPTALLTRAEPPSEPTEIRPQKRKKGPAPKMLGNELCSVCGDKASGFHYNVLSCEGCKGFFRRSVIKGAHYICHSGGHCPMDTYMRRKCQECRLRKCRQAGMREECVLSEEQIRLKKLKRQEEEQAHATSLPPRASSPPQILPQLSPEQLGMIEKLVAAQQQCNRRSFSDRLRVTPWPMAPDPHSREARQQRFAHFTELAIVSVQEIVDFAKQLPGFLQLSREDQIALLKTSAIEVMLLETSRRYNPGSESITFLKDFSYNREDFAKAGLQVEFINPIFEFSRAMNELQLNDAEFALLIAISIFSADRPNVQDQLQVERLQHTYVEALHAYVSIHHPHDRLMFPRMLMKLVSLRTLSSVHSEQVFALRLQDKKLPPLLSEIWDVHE
- protocol: Partial agonist activity at recombinant human GAL4-DBD-fused LXRalpha-LBD expressed in HEK293T cells measured after 12 to 14 hrs by dual-glo luciferase reporter gene assay
- Assay type: cell-based, HEK-293T
measure: EC50 (µM)

> print(dat)
                            chemical.string  measure  reported.result
1  C=C(c1ccc(C(=O)O)cc1)c1cc2c(cc1C)C(C)(C)CCC2(C)C     EC50            0.196
2  Fc1ccc(-c2c3cccc(C(F)(F)F)c3nn2Cc2ccc(F)cc2Cl)cc1     EC50             1.44
